# Tested on: TNFα release, U937 cells
# procedure_text: U937 Cell TNFα Release Assay (LPS, ELISA)
# Assay type: cell-based, human
# condition_description: Homo sapiens, U-937, 4 h, read-out: TNF Release Assay Avg. IC50, LPS 100 ng/ml, 4 hrs, differentiated U937 cells; additional values are replicate IC50 experiments
measured_metric: IC50

compound	measured_metric	meas_value
COc1ccc2[nH]c3c(c2c1)C1CCN(C1)C3C(=O)OC(C)(C)C (stereo not drawn)	IC50	> 100 µM
COc1ccc2[nH]c3c(c2c1)C1CCN(C1)C3C(=O)OCCO (stereo not drawn)	IC50	> 100 µM
COc1ccc2[nH]c3c(c2c1)C1CCN(C1)C3C(=O)OC12CC3CC(CC(C3)C1)C2 (stereo not drawn)	IC50	42.4 µM

====

# System: TNFα release, U937 cells
# procedure_text: U937 Cell TNFα Release Assay (LPS, ELISA)
# Format: cell-based, human
# condition_description: read-out: TNF Release Assay Avg. IC50; LPS 100 ng/ml, 4 hrs, differentiated U937 cells; additional values are replicate IC50 experiments; listed as 37, trifluoroacetate
# Experimental: U937 Cell TNFα Release Assay […] Coating solution was aspirated the following day and wells were blocked with 1 mg/ml gelatin in PBS (plus 1× thimerasol) for 2 days at 4° C. […] TNF levels were quantitated from a recombinant human TNFα (R&D Systems #210-TA-010) standard curve using a quadratic parameter fit generated by SoftMaxPRO software. […]
pIC50: −log10 of the molar value.

compound	pIC50
COc1ccc2[nH]c3c(c2c1)C1CCN(C1)C3C(=O)OC1CCCCC1 (stereo not shown) [trifluoroacetate]	4.30

====

Reported pIC50 values for the following molecules.
# Test system: TNFα release, U937 cells
# procedure_text: U937 Cell TNFα Release Assay (LPS, ELISA)
# Type: cell-based, human
# condition_description: Homo sapiens, U-937, 4 h, LPS 100 ng/ml, 4 hrs, differentiated U937 cells; additional values are replicate IC50 experiments; read-out: TNF Release Assay Avg. IC50
# Description: U937 Cell TNFα Release Assay […] Coating solution was aspirated the following day and wells were blocked with 1 mg/ml gelatin in PBS (plus 1× thimerasol) for 2 days at 4° C. […] TNF levels were quantitated from a recombinant human TNFα (R&D Systems #210-TA-010) standard curve using a quadratic parameter fit generated by SoftMaxPRO software. […]
pIC50: −log10 of the molar value. Where a name gives a salt, the structure may show the parent alone.

molecule	pIC50
O=C(OCc1ccccc1)C1c2[nH]c3ccc(OCc4ccccc4)cc3c2C2CCN1C2 (centres unmarked) [compound 47, trifluoroacetate]	4.12
COc1ccc2[nH]c3c(c2c1)C1CCN(C1)C3C(N)=O (centres unmarked) [compound 48]	< 4.00
CNC(=O)C1c2[nH]c3ccc(OC)cc3c2C2CCN1C2 (centres unmarked) [compound 44]	< 4.00
COCCNC(=O)C1c2[nH]c3ccc(OC)cc3c2C2CCN1C2 (centres unmarked) [compound 49]	< 4.00
COc1ccc2[nH]c3c(c2c1)C1CCN(C1)C3C(=O)N(C)C (centres unmarked) [compound 46]	< 4.00
